- Assay Protocol: Octanol/water partition coefficient (log P) by HPLC elution time against a working curve of standard substances
- Type: physicochemical
- Reported Conditions: Tosoh ODS-120T column, acetonitrile/0.6% (by mass) aqueous HClO4 = 1/1, 40° C., UV 210 nm, standards heptanoic, octanoic, nonanoic and decanoic acid
Measured logP: octanol/water partition coefficient, listed per entry.
// response body must contain only the number

[[record]]
compound = "N.O=C(O)C(F)(F)C(F)(F)C(F)(F)C(F)(F)C(F)(F)C(F)F [Fluorine-containing surfactant 1, H(CF2CF2)3COONH4]"
reading = 2.4

[[record]]
compound = "N.O=C(O)C(F)(F)C(F)(F)C(F)(F)C(F)(F)C(F)(F)C(F)(F)C(F)(F)F [Fluorine-containing surfactant 5, CF3(CF2CF2)3COONH4]"
reading = 3.5

[[record]]
compound = "N.O=C(O)C(F)(OC(F)(F)C(F)(F)C(F)(F)F)C(F)(F)F (stereo not shown) [Fluorine-containing surfactant 2, C3F7OCF(CF3)COONH4]"
reading = 2.5


Entry N.O=C(O)C(F)(OC(F)(F)C(F)(OC(F)(F)F)C(F)(F)F)C(F)(F)F (stereo not shown) [Fluorine-containing surfactant 3, CF3O(CF(CF3)CF2O)CF(CF3)COONH4] has what logP: octanol/water partition coefficient? 3.4

Origin of values: patent US7714047B2
